Values from PubChem BioAssay

So I've got a bunch of molecules here, and I need their composite z-score values.
# METHOD SUMMARY: small-molecule binders of probe aNOTCH3, primary screen, biochemical, small-molecule microarray, 635/667 nm fluorescence (AID 1120);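 note: probe is a biotin-tagged antibody raised against NOTCH3 rather than NOTCH3 protein; score merges spot fluorescence near 667 nm with spot signal to noise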
# CONDITION DETAILS: higher = more signal
Form field (numeric): enter value without unit.

stdin: Query composite z-score for COc1cc(O)c(C(=O)C=Cc2ccc3c(c2)OCO3)c(OC)c1
stdout: -0.0647

stdin: Query composite z-score for C[C@@H](c1ccccc1)N1C(=O)[C@H]2[C@H]3[C@H](O)[C@H](O)CC(=NO[C@@H]4O[C@H](CO)[C@@H](O)[C@H](O)[C@H]4O)[C@H]3CC[C@H]2C1=O
stdout: 0.0259

stdin: Query composite z-score for COc1cccc([C@H]2Oc3ccc(OC)cc3C(=NOC[C@@H](O)[C@H]3O[C@@H]4OC(C)(C)O[C@@H]4[C@H]3O)[C@@H]2O)c1
stdout: 0.0831

stdin: Query composite z-score for COC(=O)CC=C[C@@H](C)[C@@H](C=NOCC[C@@H]1C=C[C@H](OC(C)=O)[C@@H](COC(C)=O)O1)NS(=O)(=O)c1ccc(C)cc1
stdout: 0.132

stdin: Query composite z-score for Cc1ccc(S(=O)(=O)NC(CCc2ccccc2)CC(=O)C(C)(C)C)cc1 (configuration not stated)
stdout: 0.0591

stdin: Query composite z-score for CCOC(=O)[C@H](Cc1ccccc1)NC(=O)CCC1CC(OC(=O)NCc2cccc3ccccc23)CC2(CCCC(COC(=O)NCC(c3ccccc3)c3ccccc3)O2)O1 (some centres not stated)
stdout: 0.062

stdin: Query composite z-score for CO[C@@H]1COC(=O)CC=C[C@@H](C)[C@H](OC)COC(=O)[C@@H](C)COC(=O)CC=C[C@H]1C
stdout: -0.055
